Data origin: PubChem BioAssay

- METHOD DESCRIPTION: fission yeast growth modulation, primary screen, strain 972, OD600, 24 h, no modulator (AID 1090);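 also: basal condition with compound alone and no growth modifier present; test concentration not given here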
- CONDITION PARAMETERS: S. pombe 972 growth, higher = more signal, called active from +8 up or from −8 down
MEASUREMENT NAME: z-score
One number for each entry.

Examples from the recorded data:
COCCCN1C(=O)[C@@]2(c3ccc([N+](=O)[O-])cc3)CC(=O)N(C3CCCCC3)[C@@H]2c2ccc(CO)cc21 : 0.734
CN1C(=O)C2C=CC(C(O)Cc3ccccc3)N(Nc3ccccc3)C2C1=O (stereo unspecified) : 0.0113
CO[C@H]1O[C@H](CO)[C@@H](OC(=O)Nc2ccc(Br)cc2)[C@H](OC(=O)c2cc3ccccc3[nH]2)[C@H]1OC(=O)c1cc2ccccc2[nH]1 : -1.59

Go through the list and state z-score for each entry.
1. CC(C)[C@@H](CO)NC(=O)[C@H]1[C@@H](c2ccccc2)N(c2ccccc2)O[C@@H]1C
2. COc1cc2c(cc1OC)CN(C(=O)[C@@H]1[C@H]3C(=O)O[C@H](c4ccccc4)[C@H](c4ccccc4)N3[C@H](c3ccc(O)cc3)[C@@]13C(=O)Nc1ccc(C#CC4(O)CCCCCC4)cc13)CC2
3. C=CC[C@@]1(C(=O)NCc2ccccc2)N=C(c2ccc(OCCCO)cc2)O[C@@H]1c1ccccc1N=[N+]=[N-]

Reply:
1. -0.207
2. -0.0727
3. 0.178

====

- METHOD DESCRIPTION: FRG1 promoter luciferase signal modulators, primary screen, FRG1 inhibition for FSHD, cell-based, C2C12 myotubes, firefly/Renilla luciferase, luminescence (AID 1084)
- CONDITION PARAMETERS: higher = more signal, called active from +8 up or from −8 down
Would you mind labelling by z-score? At or over 1 is yes (1), under is no (0).

Known results for compounds:
COc1ccc(COC2OC[C@]3(C)[C@H]4C5=C(CN3C(=O)OC(C)(C)C)[C@H](C)C(CO)C(CO)C5CC[C@@H]24)cc1 (some centres not stated) : yes (1)
COCC(=C=CC[C@H](O)c1ccccc1OCCO)C[C@H](O)c1cc(Cl)cc(Cl)c1O : no (0)
NCCCCCNC(=O)[C@@H]1C[C@@H]2C(=O)N[C@@H](Cc3ccccc3)C(=O)N2[C@@H]1c1cccc(OCCO)c1 : yes (1)
COc1ccc([Si](C)(C)[C@H]2[C@H](CCO)O[C@@]3(C(=O)N(C)c4c(Br)cc(C)cc43)[C@@H]2C)cc1 : no (0)
C#CCN(CC1=CCCCC1)[C@H](c1ccccc1Br)[C@@H](O)Cc1ccccc1 : no (0)
COc1ccc(C(O)C2C=CC3C(=O)N(C)C(=O)C3N2N2CCCCC2)c2ccccc12 (configuration not stated) : no (0)

Turning now to a further record.
Task item: Hi team, for "COCCOC(=O)N1C(=O)[C@@]2(c3cc(C#CC4=CCCCC4)ccc31)[C@H](C(=O)Nc1nc3ccccc3s1)[C@H]1C(=O)O[C@H](c3ccccc3)[C@H](c3ccccc3)N1[C@@H]2c1ccccc1OCCO" , is the recorded z-score at or above 1?
Reply: yes (1)

====

- METHOD DESCRIPTION: basal S. cerevisiae growth modulation, no modifier, primary screen, OD600, strain BY4716, 24 h, basal condition (AID 1173)
- CONDITION PARAMETERS: OD600, 24 h, called active from +8 up or from −8 down
Calls of active or inactive are those of the source.
The categories you may choose from are 1 (yes) (active), 0 (no) (inactive)

Known results for compounds:
CN1C(=O)C2C=CC(C(O)c3ccc(I)cc3)N(N3CCCCC3)C2C1=O (stereo not given) : 0 (no)
C#CCN(CC1=CCCCC1)[C@H](c1ccccc1Br)[C@@H](O)Cc1ccccc1 : 0 (no)
O=C1OCCC/C=C\[C@H]2OC34C=CCN(Cn5nnc6ccccc65)C(=O)[C@H]3N(CCCCCCO)C(=O)[C@@H]4C12 (stereo not given in full) : 0 (no)
CCCC[C@@H]1C[C@H]1[C@@H](NC(=O)c1ccco1)c1ccc(C(=O)OC)cc1 : 0 (no)
CCCCC=C[C@@H](NC(=O)Oc1cccc(C(F)(F)F)c1)c1ccccc1 : 0 (no)

Task item: Could you please tell me the result logged for "C=CCOC(=O)[C@@H]1[C@H]2C(=O)O[C@H](c3ccccc3)[C@H](c3ccccc3)N2[C@H](c2ccc(OCCOC(=O)[C@@H]3C[C@@H]4C(=O)N[C@@H](Cc5ccccc5)C(=O)N4[C@@H]3c3ccc(O)cc3)cc2)[C@@]12C(=O)Nc1ccc(I)cc12" in this assay?
Reply: 0 (no)

Task item: Could you please tell me the result logged for "O=C1c2ccccc2[C@](Cc2ccccc2I)(C(=O)NC2CC2)[C@H](c2ccc(CO)cc2)N1Cc1ccccc1" in this assay?
Reply: 0 (no)
